Value source: paper PMC6605687

# targetOfAssay: rP2X2 Ile185Val (Rattus norvegicus, UniProt P49653, I185V)
# assayProtocol: Two-electrode voltage clamp, oocytes expressing rP2X2 Ile185Val
measuredProperty: EC50 (µM)
Write down the numeric answer in µM and omit the unit.

Nc1ncnc2c1ncn2[C@@H]1O[C@H](COP(=O)(O)OP(=O)(O)OP(=O)(O)O)[C@@H](O)[C@H]1O [ATP, Adenosine 5′-triphosphate] ... 23

Query compound follows.
Sample Nc1ccn([C@@H]2O[C@H](COP(=O)(O)OP(=O)(O)OP(=O)(O)O)[C@@H](O)[C@H]2O)c(=O)n1 [CTP, Cytidine 5′-triphosphate] ; EC50 observed: 144

====

# targetOfAssay: rP2X2 Arg290Lys (Rattus norvegicus, UniProt P49653, R290K)
# assayProtocol: Two-electrode voltage clamp, oocytes expressing rP2X2 Arg290Lys
measuredProperty: EC50 (µM)
Enter your answer as a number in µM; do not include the unit.

// Nc1ncnc2c1ncn2[C@@H]1O[C@H](COP(=O)(O)OP(=O)(O)OP(=O)(O)O)[C@@H](O)[C@H]1O [ATP, Adenosine 5′-triphosphate] : EC50 value = 460

====

# targetOfAssay: rP2X2 Val70Vah (Rattus norvegicus)
# assayProtocol: Two-electrode voltage clamp, oocytes expressing rP2X2 Val70Vah
# setupConditions: Val70Vah, mean ± SEM
Consider the following molecules and their measured EC50 readings.
Remember to follow the number with its unit.

Nc1ncnc2c1ncn2[C@@H]1O[C@H](COP(=O)(O)OP(=O)(O)OP(=O)(O)O)[C@@H](O)[C@H]1O [ATP, Adenosine 5′-triphosphate] ... 120 µM

Recorded EC50 (molecule Nc1ccn([C@@H]2O[C@H](COP(=O)(O)OP(=O)(O)OP(=O)(O)O)[C@@H](O)[C@H]2O)c(=O)n1 [CTP, Cytidine 5′-triphosphate] ): 2000 µM

====

# targetOfAssay: rP2X2 Thr184Ser (Rattus norvegicus, UniProt P49653, T184S)
# assayProtocol: Two-electrode voltage clamp, oocytes expressing rP2X2 Thr184Ser
measuredProperty: EC50 (µM)
Note: unit µM is implicit; provide only the numeric part.

Nc1ccn([C@@H]2O[C@H](COP(=O)(O)OP(=O)(O)OP(=O)(O)O)[C@@H](O)[C@H]2O)c(=O)n1 [CTP, Cytidine 5′-triphosphate] ... 156

# evaluate next
Measured EC50 (rP2X2 Thr184Ser (Rattus norvegicus, UniProt P49653, T184S)), entry Nc1ncnc2c1ncn2[C@@H]1O[C@H](COP(=O)(O)OP(=O)(O)OP(=O)(O)O)[C@@H](O)[C@H]1O [ATP, Adenosine 5′-triphosphate] : 26

====

# targetOfAssay: rP2X2 Lys69Gln (Rattus norvegicus, UniProt P49653, K69Q)
# assayProtocol: Two-electrode voltage clamp, oocytes expressing rP2X2 Lys69Gln
# Assay type: cell-based
# setupConditions: EC50, Lys69Gln, mean ± SEM
measuredProperty: EC50 (mM)
Write the value in mM as a bare number.

EC50 recorded for this compound, Nc1ncnc2c1ncn2[C@@H]1O[C@H](COP(=O)(O)OP(=O)(O)OP(=O)(O)O)[C@@H](O)[C@H]1O [ATP, Adenosine 5′-triphosphate] , is 16.6

====

# targetOfAssay: rat P2X2 receptor (rP2X2R) WT (Rattus norvegicus, UniProt P49653)
# Sequence (P49653 1-472): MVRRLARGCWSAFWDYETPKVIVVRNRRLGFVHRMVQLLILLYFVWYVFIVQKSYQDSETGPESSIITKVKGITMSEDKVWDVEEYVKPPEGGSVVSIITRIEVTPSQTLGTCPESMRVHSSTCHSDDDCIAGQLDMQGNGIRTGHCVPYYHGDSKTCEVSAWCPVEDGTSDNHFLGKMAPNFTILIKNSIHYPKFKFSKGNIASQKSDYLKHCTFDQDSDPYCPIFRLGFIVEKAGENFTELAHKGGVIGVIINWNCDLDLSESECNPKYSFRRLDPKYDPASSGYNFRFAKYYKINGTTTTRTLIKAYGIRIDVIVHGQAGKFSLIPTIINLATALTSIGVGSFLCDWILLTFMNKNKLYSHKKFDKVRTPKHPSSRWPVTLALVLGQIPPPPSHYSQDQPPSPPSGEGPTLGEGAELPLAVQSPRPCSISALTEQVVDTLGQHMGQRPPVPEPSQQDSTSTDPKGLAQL
# Assay type: cell-based
measuredProperty: EC50 (µM)
Provide the reading as a plain figure in µM.

Answered cases to consult:
Nc1ncnc2c1ncn2[C@@H]1O[C@H](COP(=O)(O)OP(=O)(O)OP(=O)(O)O)C[C@H]1O [C3′-dATP, 3′-deoxyadenosine-5′-triphosphate] ... 83
Nc1ccn([C@@H]2O[C@H](COP(=O)(O)OP(=O)(O)OP(=O)(O)O)[C@@H](O)[C@H]2O)c(=O)n1 [CTP, Cytidine 5′-triphosphate] ... 370
O=c1ccn([C@@H]2O[C@H](COP(=O)(O)OP(=O)(O)OP(=O)(O)O)[C@@H](O)[C@H]2O)c(=O)[nH]1 [UTP, uridine 5′-triphosphate] ... 12000
Nc1ncnc2c1ncn2[C@@H]1O[C@H](COP(=O)(O)OP(=O)(O)OP(=O)(O)O)[C@@H](O)[C@H]1F ... 52

Could you now look at the following compound, please?
Given item Nc1ncnc2c1ncn2[C@@H]1O[C@H](COP(=O)(O)OP(=O)(O)OP(=O)(O)O)[C@@H](O)[C@H]1O [ATP, Adenosine 5′-triphosphate] , the value recorded as its EC50 is 32

====

# targetOfAssay: UniProtKB P49653
# Type: cell-based
# setupConditions: WT rP2X2R, Xenopus oocytes, −40 mV, mean ± SEM
measuredProperty: pEC50
On this scale, pEC50 is minus log10 of a concentration expressed in M (mol/L).

So for Nc1ncnc2c1ncn2[C@@H]1O[C@@]2(COP(=O)(O)OP(=O)(O)OP(=O)(O)O)CO[C@@H]1[C@@H]2O [LNA-ATP, locked nucleic acid–ATP] , the logged pEC50 turned out to be 4.57

====

# targetOfAssay: rP2X2 Lys188Gln (Rattus norvegicus, UniProt P49653, K188Q)
# Sequence (P49653 1-472 K188Q): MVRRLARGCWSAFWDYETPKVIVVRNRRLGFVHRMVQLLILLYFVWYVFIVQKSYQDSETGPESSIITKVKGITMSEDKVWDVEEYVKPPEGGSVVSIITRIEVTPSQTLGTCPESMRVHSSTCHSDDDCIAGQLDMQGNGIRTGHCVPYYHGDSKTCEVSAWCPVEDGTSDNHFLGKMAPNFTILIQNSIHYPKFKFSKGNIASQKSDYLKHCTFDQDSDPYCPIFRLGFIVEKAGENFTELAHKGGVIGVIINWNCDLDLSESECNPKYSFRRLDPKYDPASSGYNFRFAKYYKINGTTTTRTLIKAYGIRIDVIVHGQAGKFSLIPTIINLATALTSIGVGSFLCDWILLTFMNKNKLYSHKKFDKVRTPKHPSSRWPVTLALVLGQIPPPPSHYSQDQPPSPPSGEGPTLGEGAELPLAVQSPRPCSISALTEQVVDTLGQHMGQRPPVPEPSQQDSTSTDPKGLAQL
# assayProtocol: Two-electrode voltage clamp, oocytes expressing rP2X2 Lys188Gln
measuredProperty: pEC50
Conceptually, pEC50 converts a concentration in mol/L into minus its log10.

Just so you know, measured pEC50 for Nc1ncnc2c1ncn2[C@@H]1O[C@H](COP(=O)(O)OP(=O)(O)OP(=O)(O)O)[C@@H](O)[C@H]1O [ATP, Adenosine 5′-triphosphate] came out at 2.06
